Test system: Intracellular amastigotes of T. cruzi (Dm28c-Luc)
Experiment Description: microbe, parasite or virus in culture
Format: cell-based, Trypanosoma cruzi
Settings: Trypanosoma cruzi; Dm28c-Luc in Vero cells, 72 h treatment, mean ± SD; read-out: Anti-T. cruzi Activity Intracellular Amastigotes IC50
Assay Readout: pIC50
A value of pIC50 is the negative decimal logarithm of a concentration given in moles per litre.

In the examples that follow, each entry is paired with its recorded pIC50.
> print(dat)
                         compound.structure  measured
1     Nc1nnc(-c2cnn(-c3ccc(Cl)c(Cl)c3)c2)s1      4.73
2  Nc1nnc(-c2cnn(-c3ccc([N+](=O)[O-])cc3)c2N)s1      4.98
3         Nc1nnc(-c2cnn(-c3ccc(Br)cc3)c2)s1      4.55
4     Nc1nnc(-c2cnn(-c3cc(Cl)cc(Cl)c3)c2)s1      4.23
5  Nc1nnc(-c2cnn(-c3ccc([N+](=O)[O-])cc3)c2)s1      4.23
6         Nc1nnc(-c2cnn(-c3cccc(Cl)c3)c2)s1      4.17

pIC50 reading for Nc1nnc(-c2cnn(-c3ccc(Cl)cc3Cl)c2)s1 : 4.87

* * *

Tested on: Trypomastigotes of T. cruzi (Dm28c-Luc)
Experiment Description: microbe, parasite or virus in culture
Assay type: cell-based, Trypanosoma cruzi
Settings: Trypanosoma cruzi; Dm28c-Luc, 24 h treatment; read-out: Anti-T. cruzi Activity Trypomastigotes IC90
Assay Readout: IC90

> print(dat)
                   compound.structure                        target.under.test  measured
1   Nc1nnc(-c2cnn(-c3cccc(F)c3)c2N)s1  Trypomastigotes of T. cruzi (Dm28c-Luc)  > 100 µM
2  Nc1nnc(-c2cnn(-c3ccc(Cl)cc3)c2N)s1  Trypomastigotes of T. cruzi (Dm28c-Luc)  > 100 µM

Then there is this compound:
IC90 reading for Nc1nnc(-c2cnn(-c3cc(Cl)cc(Cl)c3)c2)s1 : > 100 µM

* * *

Test system: Intracellular amastigotes of T. cruzi (Dm28c-Luc)
Experiment Description: microbe, parasite or virus in culture
Type: cell-based, Trypanosoma cruzi
Assay Readout: Intracellular Amastigotes SI (CC50 of Vero cells/IC50 of intracellular amastigotes)

In the examples that follow, each entry is paired with its recorded Intracellular Amastigotes SI (CC50 of Vero cells/IC50 of intracellular amastigotes).
> print(dat)
                         compound.structure                         target.under.test  measured
1            Nc1nnc(-c2cnn(-c3ccccc3)c2N)s1  Intracellular amastigotes of T. cruzi (Dm28c-Luc)     >7.14
2        Nc1nnc(-c2cnn(-c3ccc(Cl)cc3)c2N)s1  Intracellular amastigotes of T. cruzi (Dm28c-Luc)     >7.14
3      Nc1nnc(-c2cnn(-c3ccc(Cl)cc3Cl)c2N)s1  Intracellular amastigotes of T. cruzi (Dm28c-Luc)     >7.14
4        Nc1nnc(-c2cnn(-c3ccc(Br)cc3)c2N)s1  Intracellular amastigotes of T. cruzi (Dm28c-Luc)     >7.58
5  Nc1nnc(-c2cnn(-c3ccc([N+](=O)[O-])cc3)c2)s1  Intracellular amastigotes of T. cruzi (Dm28c-Luc)     >8.16

Then there is this molecule:
Intracellular Amastigotes SI (CC50 of Vero cells/IC50 of intracellular amastigotes) reading for Nc1nnc(-c2cnn(-c3cccc(F)c3)c2N)s1 : >7.14

* * *

System: Intracellular amastigotes of T. cruzi (Dm28c-Luc)
Experiment Description: microbe, parasite or virus in culture
Type: cell-based, Trypanosoma cruzi
Settings: Trypanosoma cruzi; Dm28c-Luc in Vero cells, 72 h treatment, mean ± SD; read-out: Anti-T. cruzi Activity Intracellular Amastigotes IC50
pIC50: −log10 of the molar value.
Assay Readout: pIC50

In the examples that follow, each entry is paired with its recorded pIC50.
> print(dat)
                   compound.structure  measured
1       Nc1nnc(-c2cnn(-c3ccccc3)c2)s1      4.16
2  Nc1nnc(-c2cnn(-c3ccc(Cl)cc3)c2N)s1    < 4.15

Then there is this compound:
pIC50 reading for Nc1nnc(-c2cnn(-c3cccc(F)c3)c2N)s1 : < 4.15

* * *

Experiment Description: Cardiac toxicity in 2D cardiac monolayers (CellTiter-Glo, 72 h)
Format: cell-based, Swiss webster mice
Settings: Swiss webster, mouse, primary cardiac muscle cell monolayers (2D culture), ATP levels
Each entry below carries its recorded CC50 at 72 h.

In the examples that follow, each entry is paired with its recorded CC50 at 72 h.
> print(dat)
                                   compound  assay.readout  measured
1  O=C(Cn1ccnc1[N+](=O)[O-])NCc1ccccc1 [Bz, benznidazole, reference compound]   CC50 at 72 h  > 500 µM
2       Nc1nnc(-c2cnn(-c3ccc(Cl)cc3Cl)c2)s1   CC50 at 72 h  > 500 µM

CC50 at 72 h reading for Nc1nnc(-c2cnn(-c3ccc([N+](=O)[O-])cc3)c2N)s1 : 191 µM

* * *

Test system: Intracellular amastigotes of T. cruzi (Dm28c-Luc)
Experiment Description: microbe, parasite or virus in culture
Format: cell-based, Trypanosoma cruzi
Assay Readout: Intracellular Amastigotes SI (CC50 of Vero cells/IC50 of intracellular amastigotes)

> print(dat)
                             molecule                         target.under.test  measured
1  Nc1nnc(-c2cnn(-c3cccc(Cl)c3)c2N)s1  Intracellular amastigotes of T. cruzi (Dm28c-Luc)     >7.14
2   COc1ccc(-n2cc(-c3nnc(N)s3)cn2)cc1  Intracellular amastigotes of T. cruzi (Dm28c-Luc)    >19.08
3   Nc1nnc(-c2cnn(-c3ccc(Br)cc3)c2)s1  Intracellular amastigotes of T. cruzi (Dm28c-Luc)    >17.53
4   Nc1nnc(-c2cnn(-c3ccc(F)cc3)c2N)s1  Intracellular amastigotes of T. cruzi (Dm28c-Luc)     >7.14
5   Nc1nnc(-c2cnn(-c3ccc(Cl)cc3)c2)s1  Intracellular amastigotes of T. cruzi (Dm28c-Luc)     >7.14

Intracellular Amastigotes SI (CC50 of Vero cells/IC50 of intracellular amastigotes) reading for Nc1nnc(-c2cnn(-c3cccc(Br)c3)c2)s1 : >7.14

Intracellular Amastigotes SI (CC50 of Vero cells/IC50 of intracellular amastigotes) reading for Nc1nnc(-c2cnn(-c3cccc(F)c3)c2)s1 : >7.86

Intracellular Amastigotes SI (CC50 of Vero cells/IC50 of intracellular amastigotes) reading for Nc1nnc(-c2cnn(-c3cc(Cl)cc(Cl)c3)c2N)s1 : >7.14

* * *

Each entry below carries its recorded IC90.
Tested on: Trypomastigotes of T. cruzi (Dm28c-Luc)
Experiment Description: microbe, parasite or virus in culture
Type: cell-based, Trypanosoma cruzi
Settings: Trypanosoma cruzi; Dm28c-Luc, 24 h treatment; read-out: Anti-T. cruzi Activity Trypomastigotes IC90

For COc1ccc(-n2cc(-c3nnc(N)s3)cn2)cc1 on Trypomastigotes of T. cruzi (Dm28c-Luc), measured IC90 was > 100 µM

For Nc1nnc(-c2cnn(-c3ccccc3)c2N)s1 on Trypomastigotes of T. cruzi (Dm28c-Luc), measured IC90 was > 100 µM

For Nc1nnc(-c2cnn(-c3cccc(Br)c3)c2N)s1 on Trypomastigotes of T. cruzi (Dm28c-Luc), measured IC90 was > 100 µM

For Nc1nnc(-c2cnn(-c3cc(Cl)cc(Cl)c3)c2N)s1 on Trypomastigotes of T. cruzi (Dm28c-Luc), measured IC90 was > 100 µM

For Nc1nnc(-c2cnn(-c3cccc(F)c3)c2)s1 on Trypomastigotes of T. cruzi (Dm28c-Luc), measured IC90 was > 100 µM

For Nc1nnc(-c2cnn(-c3ccc(Br)cc3)c2)s1 on Trypomastigotes of T. cruzi (Dm28c-Luc), measured IC90 was > 100 µM

For Nc1nnc(-c2cnn(-c3ccc(Cl)cc3Cl)c2)s1 on Trypomastigotes of T. cruzi (Dm28c-Luc), measured IC90 was > 100 µM

For Nc1nnc(-c2cnn(-c3cccc(Cl)c3)c2N)s1 on Trypomastigotes of T. cruzi (Dm28c-Luc), measured IC90 was > 100 µM

* * *

Each entry below carries its recorded IC50.
System: Intracellular amastigotes of T. cruzi (Dm28c-Luc)
Experiment Description: microbe, parasite or virus in culture
Type: cell-based, Trypanosoma cruzi
Settings: Trypanosoma cruzi; Dm28c-Luc in Vero cells, 72 h treatment, mean ± SD; read-out: Anti-T. cruzi Activity Intracellular Amastigotes IC50
Hi! Could you send only the number? It should be in µM, unit omitted.

In the examples that follow, each entry is paired with its recorded IC50.
> print(dat)
                                   compound  assay.readout  measured
1  Nc1nnc(-c2cnn(-c3ccc(Cl)c(Cl)c3)c2N)s1 [2e]           IC50      33.6
2     Nc1nnc(-c2cnn(-c3cccc(F)c3)c2)s1 [1h]           IC50      66.8
3    COc1ccc(-n2cc(-c3nnc(N)s3)cn2)cc1 [1l]           IC50      24.5
4  O=C(Cn1ccnc1[N+](=O)[O-])NCc1ccccc1 [Bz, benznidazole, reference compound]           IC50      3.61

IC50 reading for Nc1nnc(-c2cnn(-c3ccc(Br)cc3)c2N)s1 [2i] : 68.7

The reported measurements were obtained from paper PMC11314410.
